- Test system: Fibroblast
- protocolText: Multiplex assay against human fibroblast
- Type: toxicity, cell-based
- experimentalContext: 12 h, 10 µM, compound concentration 10 uM, replicate 1
Property: Population Tubulin-Different-Phenotype (%); scope: individual molecules
recordedEndpoint: Population Tubulin-Different-Phenotype (%)

molecule	result
COCC(=O)NC/C=C/c1ccc2ncnc(Nc3ccc(Oc4ccc(C)nc4)c(C)c3)c2c1	87
CCN1CCN(c2ccc(Nc3cc(N(C)C(=O)Nc4c(Cl)c(OC)cc(OC)c4Cl)ncn3)cc2)CC1	3
C=CCn1c(=O)c2cnc(Nc3ccc(N4CCN(C)CC4)cc3)nc2n1-c1cccc(C(C)(C)O)n1	23
CNC(=O)c1ccc(Nc2nc(OC3CCCC3)c3c(-c4ccc5nc(C)oc5c4)c[nH]c3n2)c(OC)c1	26
Cc1ccc2nc(NCCN)c3ncc(C)n3c2c1.O=C(O)C(F)(F)F.O=C(O)C(F)(F)F	11
CCCn1c(=O)c2[nH]c(-c3cnn(Cc4cccc(C(F)(F)F)c4)c3)nc2n(CC)c1=O	46
CN(C)C(=O)C(CCN1CCC(O)(c2ccc(Cl)cc2)CC1)(c1ccccc1)c1ccccc1.Cl [LOPERAMIDE HYDROCHLORIDE]	92
CCc1cccc(CC)c1NC(=O)c1nn(C)c2c1CCc1cnc(Nc3ccc(C(=O)NC4CCN(C)CC4)cc3OC(F)(F)F)nc1-2	60
